# system.tested: HIS-TGFβR1 T204D (Homo sapiens (Human), UniProt P36897, T204D)
# Sequence (P36897 34-503 T204D): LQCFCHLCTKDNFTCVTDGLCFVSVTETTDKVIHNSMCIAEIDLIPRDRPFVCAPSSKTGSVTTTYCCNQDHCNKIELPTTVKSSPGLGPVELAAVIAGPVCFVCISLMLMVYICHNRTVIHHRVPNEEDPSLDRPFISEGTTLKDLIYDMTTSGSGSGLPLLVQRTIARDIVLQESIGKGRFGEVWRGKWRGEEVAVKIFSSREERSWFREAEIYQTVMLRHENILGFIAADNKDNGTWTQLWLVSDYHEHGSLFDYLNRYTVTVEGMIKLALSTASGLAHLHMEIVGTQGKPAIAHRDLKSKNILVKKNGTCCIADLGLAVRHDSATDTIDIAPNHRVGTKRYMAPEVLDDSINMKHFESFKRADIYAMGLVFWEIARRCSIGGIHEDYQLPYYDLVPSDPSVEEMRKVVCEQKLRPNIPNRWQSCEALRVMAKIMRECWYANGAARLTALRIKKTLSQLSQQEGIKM
# assay.explanation: HTRF probe displacement assay, HIS-TGFβR1 T204D
# Type: binding
# applied.conditions: 1 nM HIS-TGFβR1 T204D, 1 hour at room temperature, read-out: TGFBR1T204D IC50
# label = y if IC50 < 60 nM else n

Request: Is the reported IC50 for N#Cc1cnc2ccc(-c3cc(F)cnc3-c3cccc(C(F)F)n3)cn12 [Compound 83] strictly below 60 nM?
Response: y

Request: Is the reported IC50 for Fc1ccc(-c2ncccc2-c2ccc3nccn3c2)nc1C(F)F [Compound 48] strictly below 60 nM?
Response: y

Request: Is the reported IC50 for COC(=O)c1ccc(-c2ncccc2-c2ccc3ncc(C(N)=O)n3c2)nc1 [Compound 26] strictly below 60 nM?
Response: n

Request: Is the reported IC50 for Cc1nc(-c2ncccc2-c2ccc3ncnc(N)c3n2)ccc1F [Compound 103] strictly below 60 nM?
Response: y

Request: Is the reported IC50 for CC(C)c1cccc(-c2ncccc2-c2ccc3ncc(C(N)=O)n3c2)n1 [Compound 32] strictly below 60 nM?
Response: y

Request: Is the reported IC50 for Cc1nc(-c2ncccc2-c2ccc3ncc(C(N)=O)n3n2)ccc1F [Compound 43] strictly below 60 nM?
Response: y

Request: Is the reported IC50 for NC(=O)c1cnc2ccc(-c3cccnc3-c3cccc(C4CC4)n3)cn12 [Compound 35] strictly below 60 nM?
Response: y

Request: Is the reported IC50 for COCCNC(=O)c1cnc2ccc(-c3cccnc3-c3cccc(C)n3)cn12 [Compound 70] strictly below 60 nM?
Response: y

Request: Is the reported IC50 for CS(=O)(=O)Nc1cccc(-c2ncccc2-c2ccc3ncc(C#N)n3c2)n1 [Compound 44] strictly below 60 nM?
Response: n

Request: Is the reported IC50 for CC(C)c1cccc(-c2ncccc2-c2ccc3ncnc(N)c3c2)n1 [Compound 108] strictly below 60 nM?
Response: n

Request: Is the reported IC50 for Cc1nc(-c2ncccc2-c2ccc3ncnc(N)c3c2)ccc1F [Compound 110] strictly below 60 nM?
Response: y

Request: Is the reported IC50 for Cc1cccc(-c2nccc(C(F)F)c2-c2ccc3ncc(C#N)n3c2)n1 [Compound 93] strictly below 60 nM?
Response: n

Request: Is the reported IC50 for Nc1ncnc2ccc(-c3cccnc3-c3ccc(F)cn3)nc12 [Compound 104] strictly below 60 nM?
Response: y

Request: Is the reported IC50 for COC(=O)c1ccc(-c2ncccc2-c2ccc3ncc(C#N)n3c2)nc1 [Compound 25] strictly below 60 nM?
Response: n

* * *

Assign pIC50 to each entry below.
# system.tested: HIS-TGFβR1 T204D (Homo sapiens (Human), UniProt P36897, T204D)
# assay.explanation: HTRF probe displacement assay, HIS-TGFβR1 T204D
# Type: binding
# applied.conditions: 1 nM HIS-TGFβR1 T204D, 1 hour at room temperature, read-out: TGFBR1T204D IC50
# Experimental: Compounds were dissolved at 10 mM in dimethylsulfoxide (DMSO) and evaluated at eleven concentrations. IC50 values were derived by non-linear regression analysis.
Formally, pIC50 is defined as -log10 of the concentration c, with c in mol/L.

Request: Recall and state the measured pIC50 for N#Cc1cnc2ccc(-c3cccnc3-c3ccc(F)cn3)cn12 .
Response: 6.99

Request: Recall and state the measured pIC50 for CC(=O)Nc1cn2cc(-c3cccnc3-c3cccc(C)n3)ccc2n1 .
Response: 9.00

Request: Recall and state the measured pIC50 for CC(C)c1cccc(-c2ncccc2-c2ccc3ncc(C(N)=O)n3n2)n1 .
Response: 6.25

Request: Recall and state the measured pIC50 for N#Cc1cnc2ccc(-c3cccnc3-c3cccc(C4CC4)n3)cn12 .
Response: 7.72

Hello, the source for this data is patent US9981944B2, in case you need it.
